- METHOD_SUMMARY: isobaric coefficient of expansion
- SETUP_CONDITIONS: 338.15 K; 35000 kPa; Liquid; DSC with Pressure Shift
So I've got a bunch of molecules here, and I need their isobaric coefficient of expansion values.

Prompt: Item under review: CCCCCCCCCCO . Reported isobaric coefficient of expansion?
Completion: 0.000745 1/K

Prompt: What do you have for CCCCCCO ?
Completion: 0.000813 1/K

Prompt: What do you have for CCCO ?
Completion: 0.000926 1/K

Prompt: What do you have for CCCCCCCCCO ?
Completion: 0.000754 1/K

Prompt: What do you have for CCCCCO ?
Completion: 0.000828 1/K

Prompt: What do you have for CCO ?
Completion: 0.000988 1/K

Consider the following items and state reported isobaric coefficient of expansion for each.
1. CCCCCCCCO
2. CCCCCCCO
3. CCCC(C)O (stereo unspecified)

Completion:
1. 0.000766 1/K
2. 0.000791 1/K
3. 0.000967 1/K

Consider the following items and state reported isobaric coefficient of expansion for each.
1. CCCCCN
2. CCC(O)CC

Completion:
1: 0.000993 1/K; 2: 0.001 1/K

Values from the NIST ThermoML archive (doi:10.1016/j.jct.2009.07.002)
